The measurements presented in this section are drawn from ChEMBL document CHEMBL3885881.

Organism: Rattus norvegicus
Assay: DrugMatrix - Regimen: Daily Repeat
Format: toxicity, organism-based, Sprague-Dawley
Set-up: regimen Daily Repeat, gender Male, age 6-8 weeks
Settings: in vivo, po, 0 mg/kg, 120 h, tissue Blood, route oral GAVAGE, dose level Control, time 5 day, vehicle .5 % CMC
Entries and their measured ABSOLUTE LYMPHOCYTE follow.
Your answer should be a plain number; it is taken to be in CELLS/uL.

Record excerpt, results attached:
{"columns": ["compound", "measure-unit", "ABSOLUTE LYMPHOCYTE"],
 "data": [
  ["C[C@H]1O[C@@H](n2cc(F)c(=O)[nH]c2=O)[C@H](O)[C@@H]1O", "CELLS/uL", 13283.17],
  ["O=C1CN=C(c2ccccc2Cl)c2cc([N+](=O)[O-])ccc2N1", "CELLS/uL", 13283.17],
  ["O=C1Nc2ccc(Cl)cc2C(c2ccccc2Cl)=NC1O (stereo not given)", "CELLS/uL", 13632.83],
  ["CN/C(=N/CCSCc1nc[nH]c1C)NC#N", "CELLS/uL", 13283.17]
]}

Which ABSOLUTE LYMPHOCYTE value is on record for COC1=C(OC)C(=O)C(CCCCCCCCCCO)=C(C)C1=O ? 13283.17

Which ABSOLUTE LYMPHOCYTE value is on record for Cn1c(=O)c2c(ncn2CC(O)CO)n(C)c1=O (stereo not given) ? 14614

Which ABSOLUTE LYMPHOCYTE value is on record for O=C1C(CC[S+]([O-])c2ccccc2)C(=O)N(c2ccccc2)N1c1ccccc1 (stereo not given) ? 13632.83

Which ABSOLUTE LYMPHOCYTE value is on record for CCN(CC)CCOc1ccc(/C(=C(/Cl)c2ccccc2)c2ccccc2)cc1 ? 16020.5

Which ABSOLUTE LYMPHOCYTE value is on record for COc1cc2nc(N3CCN(C(=O)c4ccco4)CC3)nc(N)c2cc1OC ? 13632.83

Which ABSOLUTE LYMPHOCYTE value is on record for CN(C)[C@@H]1C(O)=C(C(N)=O)C(=O)[C@@]2(O)C(O)=C3C(=O)c4c(O)ccc(Cl)c4[C@@](C)(O)[C@H]3C[C@@H]12 ? 14614
